// provenance: paper PMC7012011

TARGET DESC: CYP2D6 (Homo sapiens, UniProt P10635)
Construct: CYP2D6 catalyzed reactions (dextromethorphan O-demethylation) in pooled HLM; from tissue; host or cells: pooled human liver microsomes
Sequence (P10635 whole entry): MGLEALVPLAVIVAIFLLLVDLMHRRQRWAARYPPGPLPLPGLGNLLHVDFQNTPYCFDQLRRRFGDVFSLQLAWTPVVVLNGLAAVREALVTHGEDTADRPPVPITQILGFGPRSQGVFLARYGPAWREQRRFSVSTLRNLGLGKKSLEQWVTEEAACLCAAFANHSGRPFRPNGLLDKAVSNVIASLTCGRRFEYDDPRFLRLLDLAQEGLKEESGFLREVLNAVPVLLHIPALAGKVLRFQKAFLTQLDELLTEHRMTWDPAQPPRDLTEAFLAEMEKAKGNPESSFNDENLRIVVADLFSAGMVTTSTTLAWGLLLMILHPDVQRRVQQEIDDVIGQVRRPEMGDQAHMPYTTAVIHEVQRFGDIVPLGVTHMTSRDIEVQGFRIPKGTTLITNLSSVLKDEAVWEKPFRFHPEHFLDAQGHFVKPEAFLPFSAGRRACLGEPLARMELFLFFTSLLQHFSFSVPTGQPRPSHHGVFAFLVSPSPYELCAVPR
ASSAY DETAILS: CYP2D6 inhibition, dextromethorphan O-demethylation in pooled HLMs
Assay type: in vitro ADME
CONDITION DESCRIPTION: human, pooled human liver microsomes, pH 7.4, probe dextromethorphan (O-demethylation); DHM 100 μM, pooled HLMs; read-out: CYP2D6 activity inhibited to % of control activity
METRIC: inhibition at 100 μM (%)
Hi! Could you send only the number? It should be in %, unit omitted.

Prompt: Write down the reported inhibition at 100 μM of O=C1c2c(O)cc(O)cc2O[C@H](c2cc(O)c(O)c(O)c2)[C@H]1O [DHM, Dihydromyricetin] , test system: CYP2D6 (Homo sapiens, UniProt P10635).
Completion: 85.3

---

METRIC: IC50
Reply with the number and its unit after it.

Prompt: Write down the reported IC50 of O=C1c2c(O)cc(O)cc2O[C@H](c2cc(O)c(O)c(O)c2)[C@H]1O [DHM, Dihydromyricetin] , test system: CYP2D6 (Homo sapiens).
Completion: 22.7 µM

---

TARGET DESC: CYP3A4 (Homo sapiens)
Construct: CYP3A4 catalyzed reactions (testosterone 6β-hydroxylation) in pooled HLM; from tissue; host or cells: pooled human liver microsomes
Sequence (P08684 whole entry): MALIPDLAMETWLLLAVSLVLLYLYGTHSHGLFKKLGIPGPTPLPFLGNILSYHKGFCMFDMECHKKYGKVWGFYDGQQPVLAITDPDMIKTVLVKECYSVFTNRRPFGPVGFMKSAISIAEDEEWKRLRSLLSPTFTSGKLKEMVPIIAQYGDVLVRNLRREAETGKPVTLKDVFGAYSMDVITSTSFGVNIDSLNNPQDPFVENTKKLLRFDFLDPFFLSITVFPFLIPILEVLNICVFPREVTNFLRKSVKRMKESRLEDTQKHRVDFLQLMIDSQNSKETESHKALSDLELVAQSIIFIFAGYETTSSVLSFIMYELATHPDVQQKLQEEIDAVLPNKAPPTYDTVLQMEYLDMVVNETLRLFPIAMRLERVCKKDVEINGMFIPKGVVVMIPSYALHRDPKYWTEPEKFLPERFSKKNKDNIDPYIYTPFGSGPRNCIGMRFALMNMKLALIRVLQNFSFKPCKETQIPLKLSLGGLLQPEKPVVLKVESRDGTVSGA
ASSAY DETAILS: CYP3A4 inhibition, testosterone 6β-hydroxylation in pooled HLMs
Format: in vitro ADME
CONDITION DESCRIPTION: DHM 0–100 μM, pooled HLMs
METRIC: pIC50
Scale: pIC50 equals -log10([C]), with [C] in mol/L.

Prompt: Recorded pIC50 for O=C1c2c(O)cc(O)cc2O[C@H](c2cc(O)c(O)c(O)c2)[C@H]1O [DHM, Dihydromyricetin] , please?
Completion: 4.83

---

METRIC: pIC50
Scale: pIC50 equals -log10([C]), with [C] in mol/L.

Prompt: Write down the reported pIC50 of O=C1c2c(O)cc(O)cc2O[C@H](c2cc(O)c(O)c(O)c2)[C@H]1O [DHM, Dihydromyricetin] , test system: CYP2E1 (Homo sapiens).
Sequence (P05181 whole entry): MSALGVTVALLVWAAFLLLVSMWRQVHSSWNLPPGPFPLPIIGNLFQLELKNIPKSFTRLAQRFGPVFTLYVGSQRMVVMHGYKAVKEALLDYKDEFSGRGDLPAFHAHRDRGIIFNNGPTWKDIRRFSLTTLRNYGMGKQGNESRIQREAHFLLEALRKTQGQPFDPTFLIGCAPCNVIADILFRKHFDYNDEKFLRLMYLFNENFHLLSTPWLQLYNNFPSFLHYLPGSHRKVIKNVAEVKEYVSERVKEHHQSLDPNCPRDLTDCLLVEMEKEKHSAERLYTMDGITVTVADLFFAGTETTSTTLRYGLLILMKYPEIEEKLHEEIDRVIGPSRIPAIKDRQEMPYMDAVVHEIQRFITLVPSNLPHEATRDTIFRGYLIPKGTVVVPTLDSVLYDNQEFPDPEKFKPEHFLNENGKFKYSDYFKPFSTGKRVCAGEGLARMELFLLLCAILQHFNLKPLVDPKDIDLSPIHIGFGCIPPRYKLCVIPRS
Completion: 4.59
